test system: SN12C renal; assay: NCI tumour cell line growth inhibition, 48 h
Metric Name: TGI

[[record]]
molecule = "CC(=O)[O-].O=C([CH-]C(=O)c1ccccc1)c1ccccc1.O=C([CH-]C(=O)c1ccccc1)c1ccccc1.[Dy+3]"
metric_name = "TGI"
experimental_value = "59.5 µM"

[[record]]
molecule = "FC(F)(F)c1ccc(-c2cnc(-c3nn[nH]n3)nc2NC2CCCCCC2)cc1"
metric_name = "TGI"
experimental_value = "> 10 µM"

[[record]]
molecule = "Cc1[nH]n(C(=O)Cc2ccccc2)c(=O)c1/C=C1\\C(=O)C=Cc2ccccc21"
metric_name = "TGI"
experimental_value = "> 100 µM"

[[record]]
molecule = "CC(=O)OCC1OC(NC(=S)Nn2c(-c3ccccc3)nc3ccccc3c2=O)C(OC(C)=O)C(OC(C)=O)C1OC(C)=O (centres undefined)"
metric_name = "TGI"
experimental_value = "> 100 µM"


* * *

tested on: SK-MEL-28 melanoma; assay: NCI tumour cell line growth inhibition, 48 h
Metric Name: TGI

[[record]]
compound = "CC(=O)O[C@@H]1[C@H]2O[C@H]2[C@H]2O[C@@]2(COC(=O)c2ccccc2)[C@H]1OC(C)=O"
experimental_value = "> 100 µM"

[[record]]
compound = "COc1cnc2c(c1)C(=O)c1c-2n(CCCN2CCNCC2)c(=O)c2cc(F)ccc12"
experimental_value = "3.03 µM"

[[record]]
compound = "COc1cccc(O)c1-c1cc(=O)c2c(O)c(OC)c(OC)c(OC)c2o1"
experimental_value = "> 100 µM"

[[record]]
compound = "Nc1nc(-c2ccccn2)c(-c2ccc3ncccc3n2)s1"
experimental_value = "> 25 µM"

[[record]]
compound = "CC1(C)N=C(N)N=C(N)N1c1cccc(CC(=O)Nc2ccccc2)c1"
experimental_value = "77 µM"

[[record]]
compound = "CC(=O)OCC1OC(NC(=S)Nn2c(-c3ccccc3)nc3ccccc3c2=O)C(OC(C)=O)C(OC(C)=O)C1OC(C)=O (stereo not given)"
experimental_value = "> 100 µM"

[[record]]
compound = "COC(=O)[C@@H](N1C(=O)c2ccccc2C1=O)C1(C)CC(Cl)=NO1 (stereo not given in full)"
experimental_value = "> 100 µM"

[[record]]
compound = "CS(=O)(=O)Sc1ccc(Cl)cc1"
experimental_value = "23.9 µM"

[[record]]
compound = "CC(C)CC(=O)O[C@H]1C(=O)O[C@@H]2C[C@H]3[C@H](C)C(=O)C(O[C@@H]4O[C@H](CO)[C@@H](O)[C@H](O)[C@H]4O)=C[C@]3(C)[C@H]3[C@@H](O)[C@H](O)[C@]4(C(=O)O)OC[C@]32[C@@H]14"
experimental_value = "> 100 µM"

[[record]]
compound = "BrC(/C=N/Nc1nnc(-c2ccccc2)c(-c2ccccc2)n1)C(Br)c1ccccc1 (stereo not given)"
experimental_value = "> 100 µM"


* * *

system: PC-3 prostate; assay: NCI tumour cell line growth inhibition, 48 h
Catalogue of TGI values
Metric Name: TGI

[[record]]
smiles_string = "CCOc1cc(NC(C)=O)ccc1C(=O)NN1C(=O)/C(=C/c2ccc(Cl)cc2)N=C1c1ccccc1"
test_system = "PC-3 prostate"
experimental_value = "> 100 µM"

[[record]]
smiles_string = "COc1ccc(-c2cc(-c3ccc(Cl)cc3)c(C#N)c(=O)n2CCCCCC(=O)Nc2ccccc2N)cc1"
test_system = "PC-3 prostate"
experimental_value = "31 µM"

[[record]]
smiles_string = "CC1(C)N=C(N)N=C(N)N1c1cccc(CC(=O)Nc2ccccc2)c1"
test_system = "PC-3 prostate"
experimental_value = "> 100 µM"

[[record]]
smiles_string = "Cc1nnc(NS(=O)(=O)c2ccc(N=Nc3c(O)c(C(=O)O)cc4ccccc34)cc2)s1"
test_system = "PC-3 prostate"
experimental_value = "> 100 µM"

[[record]]
smiles_string = "C=C1C(=O)O[C@H]2[C@@H]3O[C@@](C)(CC/C=C(\\C)CCC[C@@H]2C)[C@H](O)C[C@@H]13"
test_system = "PC-3 prostate"
experimental_value = "22.1 µM"

[[record]]
smiles_string = "NS(=O)(=O)c1ccc(NNc2c3ccccc3nc3c(C(=O)Nc4ccc(S(N)(=O)=O)cc4)cccc23)cc1"
test_system = "PC-3 prostate"
experimental_value = "> 100 µM"

[[record]]
smiles_string = "NCCCc1nonc1C(=O)O"
test_system = "PC-3 prostate"
experimental_value = "> 100 µM"

[[record]]
smiles_string = "C=C(C)[C@@H]1CC[C@]2(C(=O)OC)CC[C@]3(C)[C@H](CC[C@@H]4[C@@]5(C)CC/C(=N\\OCCC(=NCCC#N)NOCCC#N)C(C)(C)[C@@H]5CC[C@]43C)[C@@H]12"
test_system = "PC-3 prostate"
experimental_value = "> 50 µM"


* * *

Catalogue of TGI values
tested on: KM12 colon; experiment: NCI tumour cell line growth inhibition, 48 h
Metric Name: TGI

[[record]]
compound = "O=[N+]([O-])C1=Cc2c(O)ccc(O)c2C2c3ccccc3NC12 (stereo not given)"
test_system = "KM12 colon"
metric_name = "TGI"
experimental_value = "24.4 µM"

[[record]]
compound = "O=c1[nH]nc(Nc2ccc(Cl)cc2)c2nnn(-c3ccc([N+](=O)[O-])cc3)c12"
test_system = "KM12 colon"
metric_name = "TGI"
experimental_value = "> 100 µM"

[[record]]
compound = "N#Cc1nc(CCC(C(=O)O)N2C(=O)c3ccccc3C2=O)oc1N (stereo not given)"
test_system = "KM12 colon"
metric_name = "TGI"
experimental_value = "> 100 µM"

[[record]]
compound = "Cc1[nH]n(C(=O)Cc2ccccc2)c(=O)c1/C=C1\\C(=O)C=Cc2ccccc21"
test_system = "KM12 colon"
metric_name = "TGI"
experimental_value = "> 100 µM"

[[record]]
compound = "O=c1[nH]c2c(ccc3cnccc32)c2c1CCC2"
test_system = "KM12 colon"
metric_name = "TGI"
experimental_value = "> 35.7 µM"


* * *

system: OVCAR-3 ovarian; assay: NCI tumour cell line growth inhibition, 48 h; in the data active = GI50 below about 0.43 µM; inactive = the rest
Classes used: YES for active, NO for inactive

[[record]]
molecule = "N=C(N)c1ccc(-c2ccc(-c3cccs3)s2)cc1F"
assigned_class = "NO"

[[record]]
molecule = "N#CSc1c[nH]c2cccc(/C=C/C(=O)/C=C(O)/C=C/c3cccc4[nH]cc(SC#N)c34)c12"
assigned_class = "YES"

[[record]]
molecule = "COC(=O)[C@@H](C)C[C@H](Cc1ccccc1)NC(=O)c1nc([C@@H](C[C@H](C(C)C)N(C)C(=O)[C@@H](NC(=O)[C@H]2CC(=O)CCN2C)C(C)C)OC(C)=O)sc1C(C)C"
assigned_class = "YES"

[[record]]
molecule = "CC(C)c1c(C(=O)Nc2ccccc2)c(-c2ccccc2)c(-c2ccc(F)cc2)n1CC[C@@H](O)C[C@@H](O)CC(=O)O"
assigned_class = "NO"

[[record]]
molecule = "CCC[CH2][Sn]1([CH2]CCC)[O]C(=O)c2cccnc2[S]1"
assigned_class = "NO"

[[record]]
molecule = "CC/C(=C\\c1ccc(N(C)C)cc1)c1ccncc1"
assigned_class = "NO"

[[record]]
molecule = "CCCCCCCCCCCCNC(=O)N[C@H](C(=O)N[C@H]1/C=C/OCCNC(=O)/C=C/[C@H](C(C)C)NC1=O)C(C)C"
assigned_class = "NO"

[[record]]
molecule = "CCOc1ccc(-c2nc3ccc(-c4nc5ccc(N6CCN(C)CC6)cc5[nH]4)cc3[nH]2)cc1OCC"
assigned_class = "NO"

[[record]]
molecule = "O=C(CNC(=O)c1cccc2ccccc12)Nc1ccccc1Oc1ccc(O)cc1"
assigned_class = "NO"

[[record]]
molecule = "CC(C)OC(=O)OCOP(=O)(OCOC(=O)OC(C)C)C1CCCN(O)C1=O (centres undefined)"
assigned_class = "NO"

[[record]]
molecule = "COc1ccc2c(c1)OCC1c3cc(OC)ccc3OC21 (centres undefined)"
assigned_class = "NO"

[[record]]
molecule = "Cc1ccc(CNc2ccc(Cl)cc2NCc2ccc(C)c(O)c2)cc1O"
assigned_class = "NO"

[[record]]
molecule = "O[C@@H]1CCCCN1Cc1cc2cc3c(cc2c2cc(OCc4ccccc4)ccc12)OCO3"
assigned_class = "NO"

[[record]]
molecule = "CC1(C)N=C(N)N=C(N)N1c1cccc(CC(=O)Nc2ccccc2)c1"
assigned_class = "NO"

[[record]]
molecule = "Cc1n[nH]c(C)c1-c1c(C)n[nH]c1C"
assigned_class = "NO"

[[record]]
molecule = "CC(=O)Nc1ccc(S(=O)(=O)N2C(=O)CCC2C(=O)Nc2ccccc2)cc1 (centres undefined)"
assigned_class = "NO"

[[record]]
molecule = "CNC(=S)N/N=C/CSC/C=N/NC(=S)NC"
assigned_class = "NO"

[[record]]
molecule = "COc1cc2nc(NC3CCC3)nc(NC3CCN(C(C)C)CC3)c2cc1OC"
assigned_class = "NO"

[[record]]
molecule = "CN1CC[C@H](N(C)C(=O)N2CC(c3cc(F)ccc3F)=C[C@@]2(CO)c2ccccc2)[C@H](F)C1"
assigned_class = "YES"

